- system_under_test: Fibroblast growth factor-2 (human)
- protocol: SPR
# IC50 annotations

Solved cases below.
INSERT INTO results (binder, reported_property, endpoint_value) VALUES
  ('Ac-ESLARPCAPGA-NH2 [PTX3-(97-107) peptide Ac-…-NH2]', 'IC50', '300 µM'),
  ('Ac-ARPCAPGAPAEARL-NH2 [PTX3-(100-113) peptide Ac-…-NH2]', 'IC50', '500 µM');

Quick note, IC50 for Ac-GRPCA-NH2 [Ac-GRPCA-NH2] landed at 80 µM

Quick note, IC50 for Ac-APGAPAEARL-NH2 [PTX3-(104-113) peptide Ac-…-NH2] landed at 2000 µM

Quick note, IC50 for Ac-APCRA-NH2 [Ac-APCRA-NH2, partially scrambled pentapeptide] landed at 800 µM

Quick note, IC50 for Ac-GRPCG-NH2 [Ac-GRPCG-NH2] landed at > 3000 µM

Quick note, IC50 for Ac-ARPSA-NH2 [Ac-ARPSA-NH2] landed at > 3000 µM
